biological target: T1, VLP2 (virus-like particles of AAV2) (AAV2, UniProt P03135 1-735; P03135 1-598; P03135 1-533); test: ELISA on VLP2; binding after 43°C 15 min / untreated
T1 construct: Empty AAV2 capsid; background says about 60 protein molecules, VP1:VP2:VP3 = 1:1:10; Immobilised on the ELISA plate
T1 sequence (P03135 whole entry, chain 1 of 3): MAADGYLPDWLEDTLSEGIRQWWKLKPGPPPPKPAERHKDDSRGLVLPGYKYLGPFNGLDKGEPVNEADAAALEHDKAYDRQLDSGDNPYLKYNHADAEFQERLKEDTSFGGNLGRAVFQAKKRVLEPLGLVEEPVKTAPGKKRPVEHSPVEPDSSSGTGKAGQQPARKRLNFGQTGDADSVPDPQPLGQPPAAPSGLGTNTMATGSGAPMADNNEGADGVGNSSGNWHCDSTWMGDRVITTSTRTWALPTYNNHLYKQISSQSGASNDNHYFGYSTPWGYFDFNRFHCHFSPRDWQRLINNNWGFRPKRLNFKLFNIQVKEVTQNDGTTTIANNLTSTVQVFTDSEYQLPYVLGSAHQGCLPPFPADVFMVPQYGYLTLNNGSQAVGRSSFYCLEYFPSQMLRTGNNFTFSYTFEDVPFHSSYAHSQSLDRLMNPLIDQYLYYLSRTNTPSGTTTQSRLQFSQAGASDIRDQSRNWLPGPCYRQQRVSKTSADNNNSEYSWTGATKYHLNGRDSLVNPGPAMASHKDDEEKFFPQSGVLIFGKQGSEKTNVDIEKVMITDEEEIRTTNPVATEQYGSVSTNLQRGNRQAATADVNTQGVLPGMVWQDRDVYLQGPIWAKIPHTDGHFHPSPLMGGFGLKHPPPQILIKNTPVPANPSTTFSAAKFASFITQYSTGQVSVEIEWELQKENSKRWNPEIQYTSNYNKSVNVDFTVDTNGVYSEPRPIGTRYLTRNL
T1 sequence (P03135 139-735, tags left off, chain 2 of 3): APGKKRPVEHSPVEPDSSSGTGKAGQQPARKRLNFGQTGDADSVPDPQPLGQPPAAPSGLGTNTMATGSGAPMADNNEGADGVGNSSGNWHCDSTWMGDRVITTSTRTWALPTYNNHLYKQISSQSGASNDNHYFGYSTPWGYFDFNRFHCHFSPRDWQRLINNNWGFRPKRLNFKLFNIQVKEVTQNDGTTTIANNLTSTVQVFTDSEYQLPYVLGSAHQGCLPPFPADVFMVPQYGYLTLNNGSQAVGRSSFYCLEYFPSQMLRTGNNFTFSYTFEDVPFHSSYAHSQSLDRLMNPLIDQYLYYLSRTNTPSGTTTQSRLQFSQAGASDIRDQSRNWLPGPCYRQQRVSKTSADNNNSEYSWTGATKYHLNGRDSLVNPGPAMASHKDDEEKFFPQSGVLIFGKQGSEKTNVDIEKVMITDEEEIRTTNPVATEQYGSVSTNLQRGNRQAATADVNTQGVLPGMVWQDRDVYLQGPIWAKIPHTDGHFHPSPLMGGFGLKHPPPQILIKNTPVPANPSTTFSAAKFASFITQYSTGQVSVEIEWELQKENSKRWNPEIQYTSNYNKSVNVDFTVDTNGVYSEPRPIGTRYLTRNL
T1 sequence (P03135 203-735, chain 3 of 3): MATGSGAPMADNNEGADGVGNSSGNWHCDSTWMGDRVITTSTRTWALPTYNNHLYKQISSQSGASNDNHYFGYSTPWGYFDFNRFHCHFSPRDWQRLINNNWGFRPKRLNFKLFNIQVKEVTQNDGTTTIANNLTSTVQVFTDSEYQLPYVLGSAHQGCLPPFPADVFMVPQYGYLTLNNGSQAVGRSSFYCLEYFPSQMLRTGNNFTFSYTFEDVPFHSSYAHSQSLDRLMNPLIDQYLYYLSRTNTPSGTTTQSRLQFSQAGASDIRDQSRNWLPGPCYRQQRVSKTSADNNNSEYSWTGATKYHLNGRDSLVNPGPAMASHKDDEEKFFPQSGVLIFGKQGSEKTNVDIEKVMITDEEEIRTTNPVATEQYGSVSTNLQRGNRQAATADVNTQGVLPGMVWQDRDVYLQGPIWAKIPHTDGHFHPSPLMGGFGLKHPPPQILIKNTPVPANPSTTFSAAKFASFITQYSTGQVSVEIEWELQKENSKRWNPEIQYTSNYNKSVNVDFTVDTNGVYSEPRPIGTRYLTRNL
Response key: 1 (yes) means Residual activity [%] >= 80%; 0 (no) means Residual activity [%] < 80%.

binder	qualitative.label
AAV-binding protein No. 42 (Ile319Phe, Pro322Leu, Lys448Arg) (receptor) MGSAGESVQFTLLKNEVQLNAYVLQEPPKGETYTYDWQLITHPRDYSGEMEGKHSQILKLSKLTPGLYEFKVIVEGQNAHGEGYVNVTVKPEPRKNRPPIAIVSPQFQEISLPTTSTVIDGSQSTDDDKIVQYHWEELRGPLREEKISEDTAILKLSKLVPGNYTFSLTVVDSDGATNSTTANLTVNKAVDHHHHHH	0 (no)
AAV-binding protein No. 18 (Tyr393Cys) (receptor) MGSAGESVQITLPKNEVQLNAYVLQEPPKGETYTYDWQLITHPRDYSGEMEGKHSQILKLSKLTPGLYEFKVIVEGQNAHGEGCVNVTVKPEPRKNRPPIAIVSPQFQEISLPTTSTVIDGSQSTDDDKIVQYHWEELKGPLREEKISEDTAILKLSKLVPGNYTFSLTVVDSDGATNSTTANLTVNKAVDHHHHHH	1 (yes)
AAV-binding protein No. 2 (Tyr331Cys) (receptor) MGSAGESVQITLPKNEVQLNACVLQEPPKGETYTYDWQLITHPRDYSGEMEGKHSQILKLSKLTPGLYEFKVIVEGQNAHGEGYVNVTVKPEPRKNRPPIAIVSPQFQEISLPTTSTVIDGSQSTDDDKIVQYHWEELKGPLREEKISEDTAILKLSKLVPGNYTFSLTVVDSDGATNSTTANLTVNKAVDHHHHHH	0 (no)
AAV-binding protein No. 3 (Lys338Glu) (receptor) MGSAGESVQITLPKNEVQLNAYVLQEPPEGETYTYDWQLITHPRDYSGEMEGKHSQILKLSKLTPGLYEFKVIVEGQNAHGEGYVNVTVKPEPRKNRPPIAIVSPQFQEISLPTTSTVIDGSQSTDDDKIVQYHWEELKGPLREEKISEDTAILKLSKLVPGNYTFSLTVVDSDGATNSTTANLTVNKAVDHHHHHH	0 (no)
AAV-binding protein No. 20 (Lys399Glu) (receptor) MGSAGESVQITLPKNEVQLNAYVLQEPPKGETYTYDWQLITHPRDYSGEMEGKHSQILKLSKLTPGLYEFKVIVEGQNAHGEGYVNVTVEPEPRKNRPPIAIVSPQFQEISLPTTSTVIDGSQSTDDDKIVQYHWEELKGPLREEKISEDTAILKLSKLVPGNYTFSLTVVDSDGATNSTTANLTVNKAVDHHHHHH	0 (no)
AAV-binding protein No. 48 (Ala330Gly, Gln347Pro, Lys371Glu) (receptor) MGSAGESVQITLPKNEVQLNGYVLQEPPKGETYTYDWPLITHPRDYSGEMEGKHSQILKLSELTPGLYEFKVIVEGQNAHGEGYVNVTVKPEPRKNRPPIAIVSPQFQEISLPTTSTVIDGSQSTDDDKIVQYHWEELKGPLREEKISEDTAILKLSKLVPGNYTFSLTVVDSDGATNSTTANLTVNKAVDHHHHHH	1 (yes)
AAV-binding protein No. 8 (His351Leu) (receptor) MGSAGESVQITLPKNEVQLNAYVLQEPPKGETYTYDWQLITLPRDYSGEMEGKHSQILKLSKLTPGLYEFKVIVEGQNAHGEGYVNVTVKPEPRKNRPPIAIVSPQFQEISLPTTSTVIDGSQSTDDDKIVQYHWEELKGPLREEKISEDTAILKLSKLVPGNYTFSLTVVDSDGATNSTTANLTVNKAVDHHHHHH	0 (no)
